Test system: U-251
Test: NCI tumour cell line growth inhibition, 48 h
The source made the active and inactive calls. No stated cut-off is given here; in the data, active = GI50 up to about 1.1 µM and inactive = higher.
I would appreciate it if you answered using one of these outcomes: YES for active, NO for inactive

Task: What is the recorded call for this molecule in the test? `O=C(NC12CC3CC(CC(C3)C1)C2)C(=O)c1c[nH]c2ccc(Br)cc12`
Output: NO

Task: What is the recorded call for this molecule in the test? `COc1ccc(/C=C/C(=O)c2cc(OC)cc(OC)c2)cc1`
Output: NO

Task: What is the recorded call for this molecule in the test? `CC(=O)Oc1ccc2cc(-c3ccccc3OC(C)=O)c(=O)oc2c1`
Output: NO

Task: What is the recorded call for this molecule in the test? COc1ccc(NC(=O)CC(=O)N2N=C(C)C(/N=N\c3ccc(S(=O)(=O)c4ccc(/N=N/C5C(=O)N(C(=O)CC(=O)Nc6ccc(OC)cc6)N=C5C)cc4)cc3)C2=O)cc1 (stereo not drawn)
Output: NO

Task: What is the recorded call for this molecule in the test? O=C1CC(c2ccc(Cl)cc2)C2(C(=O)NC(=O)NC2=O)C(c2ccc(Cl)cc2)C1 (stereo not drawn)
Output: NO

Task: What is the recorded call for this molecule in the test? `CC(=O)Nc1nc(NC(C)=O)c2nc(CO)[nH]c2n1`
Output: NO

Task: What is the recorded call for this molecule in the test? `O=[N+]([O-])c1ccc2[nH]ncc2c1Cl`
Output: NO

Task: What is the recorded call for this molecule in the test? `COc1ccc(/C=N\N(C)Cc2cccc3ccsc23)cc1`
Output: NO

Task: What is the recorded call for this molecule in the test? C=C1CCCCCCCCCCC1[S+]([O-])c1ccccc1 (stereo not drawn)
Output: NO

Task: What is the recorded call for this molecule in the test? COc1ccc2c(c1)N1CCc3cc(OC)c(OC)cc3C1C2 (stereo not drawn)
Output: NO

Task: What is the recorded call for this molecule in the test? `COc1ccc(NCc2cc(OC)c(OC)c(OC)c2)cc1`
Output: YES

Task: What is the recorded call for this molecule in the test? `COc1ccc(NC(=O)C2=C(SC)C(=O)N=C2N)cc1`
Output: NO

Task: What is the recorded call for this molecule in the test? COc1ccc(C(=O)C2CC3(CCC2(O)c2ccc(OC)cc2)CC(=O)Nc2ccccc2C3=O)cc1 (stereo not drawn)
Output: NO

Task: What is the recorded call for this molecule in the test? `CC[C@]12C=CCN3CC[C@@]4(c5cc(Br)c(OC)cc5N(C)[C@H]4[C@@](O)(C(=O)NN)[C@@H]1O)[C@@H]32`
Output: NO

Task: What is the recorded call for this molecule in the test? `CCOC(=O)c1cn2c(n1)sc1cc(C)c(C)cc12`
Output: NO

Task: What is the recorded call for this molecule in the test? `COc1ccc2c(c1)/C(=C\c1c(C)nc3sc(C)cn13)C(=O)N2`
Output: YES

Task: What is the recorded call for this molecule in the test? `CCOC(=O)c1c(SC(=O)C(C)(C)Oc2ccc(Cl)cc2)n(-c2ccccc2)c(=S)n(-c2ccccc2)c1=O`
Output: NO

Task: What is the recorded call for this molecule in the test? `N#C/C(=C1\N=C(c2ccccc2O)Oc2ccccc21)c1ccc([N+](=O)[O-])cc1`
Output: NO

Task: What is the recorded call for this molecule in the test? `COc1ccc(-c2cc(-c3ccccc3)nc3c2CC(=O)Nc2ccccc2-3)cc1OC`
Output: NO

Task: What is the recorded call for this molecule in the test? CCOc1ccc(/N=N/C2C(=O)N(C(=O)CC(=O)Nc3ccccc3)N=C2C)cc1 (stereo not drawn)
Output: NO

Task: What is the recorded call for this molecule in the test? `OC1=CN=C(c2ccccc2)Oc2ccccc21`
Output: NO

Task: What is the recorded call for this molecule in the test? COc1c(O)cc(/C=C/c2cc(O)cc3c2[C@@]2(C(=O)O3)c3c(O)cc(O)cc3OC2c2cccc(O)c2)cc1O (stereo partly drawn)
Output: NO

Task: What is the recorded call for this molecule in the test? `Cc1ccc(-c2cc[n+]3c(n2)oc2ccccc23)cc1`
Output: NO

Task: What is the recorded call for this molecule in the test? `COc1cc(/N=N\c2cccc(S(=O)(=O)O)c2)ccc1/N=N\c1ccc(/C=C/c2ccc(-n3on3-c3ccc(/C=C/c4ccc(/N=N/c5ccc(/N=N\c6cccc(S(=O)(=O)O)c6)cc5OC)cc4S(=O)(=O)O)c(S(=O)(=O)O)c3)cc2S(=O)(=O)O)c(S(=O)(=O)O)c1`
Output: NO

Task: What is the recorded call for this molecule in the test? `COC(=O)CSc1nnc(-c2ccc(O)c([N+](=O)[O-])c2)[nH]1`
Output: NO

Task: What is the recorded call for this molecule in the test? O=c1[nH]c(=O)n(C2CC(O)C(CO)O2)cc1C#Cc1ccc(F)cc1 (stereo not drawn)
Output: NO

Task: What is the recorded call for this molecule in the test? `Cc1nc(-c2nc(C)c(C(=O)NNC(=O)C[n+]3ccccc3)s2)sc1C(=O)NNC(=O)C[n+]1ccccc1`
Output: NO

Task: What is the recorded call for this molecule in the test? `CC[C@@]1(O)C(=O)OCc2c1cc1n(c2=O)Cc2c-1nc1ccccc1c2/C=N/NC(=O)C[N+](C)(C)C`
Output: YES

Task: What is the recorded call for this molecule in the test? `CN(C)CCNC(=O)c1cccc2nc3c(C(=O)NCCN(C)C)cccc3nc12`
Output: YES

Task: What is the recorded call for this molecule in the test? C/C=C1\CC(C(=O)OCC)CCCCCCCCCCC1=O (stereo not drawn)
Output: NO

Task: What is the recorded call for this molecule in the test? `CSc1nnc2n1-c1ccccc1SCC2`
Output: NO

Task: What is the recorded call for this molecule in the test? `CCOc1cc2c(cc1O)/C(=N\O)C[C@@H]1[C@@H]2CC[C@]2(C)[C@@H](O)CC[C@@H]12`
Output: YES

Task: What is the recorded call for this molecule in the test? COC(=O)C(=O)C(C#N)c1cccc2ccccc12 (stereo not drawn)
Output: NO

Task: What is the recorded call for this molecule in the test? CC(CN1CC(=O)NC(=O)C1)N1CC(=O)NC(=O)C1 (stereo not drawn)
Output: NO

Task: What is the recorded call for this molecule in the test? `COc1cc(Oc2nc3ccccc3nc2C(=O)O)cc(OC)c1OC`
Output: NO

Task: What is the recorded call for this molecule in the test? CC1(C)CC[C@]2(C(=O)O)CC[C@]3(C)C(=CC[C@@H]4[C@@]5(C)CC[C@H](OC6OC(CO)C(O)C(O)C6O)C(C)(C)[C@@H]5CC[C@]43C)[C@@H]2C1 (stereo partly drawn)
Output: NO

Task: What is the recorded call for this molecule in the test? `COC1=C(Cl)C(=O)c2c(O)ccc(O)c2C1=O`
Output: NO

Task: What is the recorded call for this molecule in the test? `CC[C@@]1(OC(=O)CN(C)C)C(=O)OCc2c1cc1n(c2=O)Cc2cc3ccccc3nc2-1`
Output: YES

###

Tested on: HCC 2998
Assay: NCI tumour cell line growth inhibition, 48 h
Calls of active or inactive are those of the source. Cut-off read from the data, not from the text of the source: active = GI50 up to about 1.1 µM and inactive = higher.
Measured Parameter: GI50

Task: Output GI50 of `COc1ccc2c(c1)CCc1[nH]c3ccccc3c1CCCC2`
Output: > 10 µM (inactive)

Task: Output GI50 of CCOC(=O)C(O)(NC(=O)c1ccccc1F)C(F)(F)F (stereo unspecified)
Output: > 100 µM (inactive)

Task: Output GI50 of Cc1nn(C(=O)c2ccncc2)c2c1C(c1ccccc1)SC(=N)N2 (stereo unspecified)
Output: > 10 µM (inactive)

Task: Output GI50 of `Cc1nc(-c2nc(C)c(C(=O)NNC(=O)C[n+]3ccccc3)s2)sc1C(=O)NNC(=O)C[n+]1ccccc1`
Output: > 100 µM (inactive)

Task: Output GI50 of `Cc1ccc(S(=O)(=O)Nc2nc3ccccc3c(=O)n2C2CCCCC2)cc1`
Output: > 100 µM (inactive)

Task: Output GI50 of `CCN(CC)CCNc1ccc2nnn3c4ccccc4c(=O)c1c23`
Output: 7.31 µM (inactive)

Task: Output GI50 of `CCOC(=O)c1nc(C)oc1C(F)(F)F`
Output: > 100 µM (inactive)

Task: Output GI50 of C/C(=C\CNc1ncnc2c1ncn2C1CCCCO1)COP(=O)(O)O (stereo unspecified)
Output: > 100 µM (inactive)

Task: Output GI50 of `Cc1ccc(O)c(-c2cscn2)c1`
Output: 24.7 µM (inactive)

Task: Output GI50 of `COCCn1cnc2c(Cl)nc(Nc3ccccc3)nc21`
Output: 17.3 µM (inactive)

Task: Output GI50 of COC(=O)c1ccccc1C1CN=NC12Cc1ccc(C)c(C)c1C2=O (stereo unspecified)
Output: 68.9 µM (inactive)

###

System: 786-0
Experiment: NCI tumour cell line growth inhibition, 48 h
Calls of active or inactive are those of the source. Rule as the data show it: active = GI50 up to about 1.1 µM and inactive = higher.
I would appreciate it if you answered using one of these outcomes: TRUE (active), FALSE (inactive)

Task: What is the recorded call for this compound in the test? `Clc1nc(Nc2nc3ccccc3[nH]2)nc(Cl)c1-c1ccccc1`
Output: FALSE

Task: What is the recorded call for this compound in the test? CC(C)/C=C1\CCC(CN(C)C)C1=O (stereo unspecified)
Output: TRUE

Task: What is the recorded call for this compound in the test? `COc1ccc(S(=O)(=O)Nc2ccc(-c3csc(N4C(=O)/C(=C/c5cccs5)N=C4c4ccccc4)n3)cc2)cc1Cl`
Output: FALSE

Task: What is the recorded call for this compound in the test? `COc1ccc(/N=C2\C(=N/c3ccc(OC)cc3)N(c3ccc(N(C)C)cc3)C(=S)N2c2ccc(OC)cc2)cc1`
Output: TRUE

Task: What is the recorded call for this compound in the test? C=C=C(CC)C(C(=O)OC)N(CC)CC (stereo unspecified)
Output: FALSE

Task: What is the recorded call for this compound in the test? `CCCCOc1ccc(S(=O)(=O)N/C(=N\O)Nc2ccc(Cl)cc2)cc1`
Output: FALSE
